System: Mus musculus
test: Effect on spleen weight in mouse at 0.1103 mmol/kg, po
Format: functional
Where a SMILES comes first, the peptide text is derived from it. The star is where a group is joined. Succinyl(O17-estradiol) = C[C@]12CC[C@@H]3c4ccc(O)cc4CC[C@H]3[C@@H]1CC[C@@H]2OC(=O)CCC(=O)*; X1 = C[C@]12CC[C@@H]3c4ccc(OCC(=O)*)cc4CC[C@H]3[C@@H]1CCC2O
Reported Activity by item:
reported metric: Activity (mg)

C[C@]12CC[C@@H]3c4ccc(O)cc4CC[C@H]3[C@@H]1CC[C@@H]2OC(=O)CCC(=O)N[C@@H](CCCNC(=N)N)C(=O)NCC(=O)N[C@@H](CC(=O)O)C(=O)N[C@@H](Cc1ccccc1)C(=O)O ({Succinyl(O17-estradiol)}-RGDF-OH) = 142
C[C@]12CC[C@@H]3c4ccc(OCC(=O)N[C@@H](CCCNC(=N)N)C(=O)NCC(=O)N[C@@H](CC(=O)O)C(=O)N[C@@H](Cc5ccccc5)C(=O)O)cc4CC[C@H]3[C@@H]1CCC2O (some centres not stated) (X1-RGDF-OH) = 135
CC(C)[C@H](NC(=O)[C@H](CC(=O)O)NC(=O)CNC(=O)[C@H](CCCNC(=N)N)NC(=O)CCC(=O)O[C@H]1CC[C@H]2[C@@H]3CCc4cc(O)ccc4[C@H]3CC[C@]12C)C(=O)O ({Succinyl(O17-estradiol)}-RGDV-OH) = 133
C[C@]12CC[C@@H]3c4ccc(O)cc4CC[C@H]3[C@@H]1CC[C@@H]2O [ESTRADIOL] = 141
C[C@]12CC[C@@H]3c4ccc(OCC(=O)N[C@@H](CCCNC(=N)N)C(=O)NCC(=O)N[C@@H](CC(=O)O)C(=O)N[C@@H](CO)C(=O)O)cc4CC[C@H]3[C@@H]1CCC2O (some centres not stated) (X1-RGDS-OH) = 138
C[C@]12CC[C@@H]3c4ccc(O)cc4CC[C@H]3[C@@H]1CC[C@@H]2OC(=O)CCC(=O)N[C@@H](CCCNC(=N)N)C(=O)NCC(=O)N[C@@H](CC(=O)O)C(=O)N[C@@H](CO)C(=O)O ({Succinyl(O17-estradiol)}-RGDS-OH) = 135
CC(C)[C@H](NC(=O)[C@H](CC(=O)O)NC(=O)CNC(=O)[C@H](CCCNC(=N)N)NC(=O)COc1ccc2c(c1)CC[C@@H]1[C@@H]2CC[C@]2(C)C(O)CC[C@@H]12)C(=O)O (some centres not stated) (X1-RGDV-OH) = 134

---

Tested on: Mus musculus
test: Effect on phosphorus level in ovariectomized mouse at 0.1103 mmol/kg, ip once daily for 4 weeks
Format: functional
Where a SMILES comes first, the peptide text is derived from it. The star is where a group is joined. Succinyl(O17-estradiol) = C[C@]12CC[C@@H]3c4ccc(O)cc4CC[C@H]3[C@@H]1CC[C@@H]2OC(=O)CCC(=O)*; X2 = C[C@]12CC[C@@H]3c4ccc(OCC(=O)*)cc4CC[C@H]3[C@@H]1CCC2=O; X1 = C[C@]12CC[C@@H]3c4ccc(OCC(=O)*)cc4CC[C@H]3[C@@H]1CCC2O
Activity for assorted compounds
reported metric: Activity (%)

C[C@]12CC[C@@H]3c4ccc(O)cc4CC[C@H]3[C@@H]1CC[C@@H]2OC(=O)CCC(=O)N[C@@H](CCCNC(=N)N)C(=O)NCC(=O)N[C@@H](CC(=O)O)C(=O)N[C@@H](CO)C(=O)O ({Succinyl(O17-estradiol)}-RGDS-OH) = 24.92
C[C@]12CC[C@@H]3c4ccc(O)cc4CC[C@H]3[C@@H]1CC[C@@H]2O [ESTRADIOL] = 24.995
CC(C)[C@H](NC(=O)[C@H](CC(=O)O)NC(=O)CNC(=O)[C@H](CCCNC(=N)N)NC(=O)COc1ccc2c(c1)CC[C@@H]1[C@@H]2CC[C@]2(C)C(O)CC[C@@H]12)C(=O)O (some centres not stated) (X1-RGDV-OH) = 24.991
C[C@]12CC[C@@H]3c4ccc(OCC(=O)N[C@@H](CCCNC(=N)N)C(=O)NCC(=O)N[C@@H](CC(=O)O)C(=O)N[C@@H](CO)C(=O)O)cc4CC[C@H]3[C@@H]1CCC2O (some centres not stated) (X1-RGDS-OH) = 24.949
N=C(N)NCCC[C@H](N)C(=O)NCC(=O)N[C@@H](CC(=O)O)C(=O)N[C@@H](CO)C(=O)O = 24.888
C[C@]12CC[C@@H]3c4ccc(OCC(=O)N[C@@H](CCCNC(=N)N)C(=O)NCC(=O)N[C@@H](CC(=O)O)C(=O)N[C@@H](Cc5ccccc5)C(=O)O)cc4CC[C@H]3[C@@H]1CCC2=O (X2-RGDF-OH) = 24.588
C[C@]12CC[C@@H]3c4ccc(O)cc4CC[C@H]3[C@@H]1CCC2=O [ESTRONE] = 23.979
